Measured values drawn from PubChem BioAssay (EPA / NIEHS) for this set.

read-out: Interleukin-8 (IL8), CXCL8 (gene 3576); experiment: BSK_LPS_IL8: BioMAP Diversity Plus: LPS Assay for Interleukin-8 (IL8) Biomarker Activity (AID 2283078); settings: primary human HUVEC with PBMC; actives raise or lower the signal
Activity calls are given as the source filed them. How the source made its calls: active means hit-call score of the fitted dose curve at least 0.9, where 1 is the maximum; inactive means score below 0.9.
endpoint: outcome

For CC(C)(C)C(=O)CC(=O)C(F)(F)C(F)(F)C(F)(F)F , what is its reported outcome?
inactive

For O=C(O)C(F)(F)C(F)(F)OC(F)(F)F , what is its reported outcome?
inactive

For O=C(O)C(F)(F)C(F)(F)F , what is its reported outcome?
inactive

For Cc1ccc(S(=O)(=O)OCC(F)(F)C(F)(F)C(F)(F)C(F)(F)C(F)(F)C(F)F)cc1 , what is its reported outcome?
inactive

For O=S(=O)(O)C(F)(F)C(F)(F)C(F)(F)C(F)(F)C(F)(F)C(F)(F)C(F)(F)F , what is its reported outcome?
inactive

For CC(CCl)OP(=O)(OC(C)CCl)OC(C)CCl (centres undefined) , what is its reported outcome?
inactive

More entries:
For O=C(O)C(F)(OC(F)(F)C(F)(OC(F)(F)C(F)(F)C(F)(F)F)C(F)(F)F)C(F)(F)F (centres undefined) , what is its reported outcome?
inactive

For O=C(CC(=O)C(F)(F)C(F)(F)F)C(F)(F)F , what is its reported outcome?
inactive

====

read-out: Vascular cell adhesion molecule 1 (VCAM1), VCAM1 (gene 7412); assay: BSK_IMphg_VCAM1: BioMAP Diversity Plus: IMphg Assay for Vascular cell adhesion molecule 1 (VCAM1) Biomarker Activity (AID 2284286); details: primary human endothelial cells with macrophages
Activity calls are given as the source filed them. Rule for the calls: active = hit-call score of the fitted dose curve at least 0.9, where 1 is the maximum; inactive = score below 0.9.
endpoint: outcome

These solved cases illustrate the format of a correct answer.
For CC(C)(C)C(=O)CC(=O)C(F)(F)C(F)(F)C(F)(F)F , what is its reported outcome?
inactive

For NC(=O)C(F)(F)C(F)(F)C(F)(F)C(F)(F)F , what is its reported outcome?
inactive

For C=CC(=O)OCC(F)(F)C(F)(F)C(F)(F)C(F)(F)C(F)(F)C(F)(F)C(F)(F)F , what is its reported outcome?
inactive

For OCC(F)(F)C(F)(F)C(F)(F)C(F)(F)C(F)(F)C(F)(F)F , what is its reported outcome?
inactive

More entries:
For FC(F)(F)C(F)(F)C(F)(F)C(F)(F)C(F)(F)C(F)(F)CC1CO1 (stereo not given) , what is its reported outcome?
inactive

====

read-out: urokinase Plasminogen Activator (uPA), PLAU (gene 5328); test: BSK_BF4T_uPA: BioMAP Diversity Plus: BF4T Assay for urokinase Plasminogen Activator (uPA) Biomarker Activity (AID 2284275); details: primary human bronchial epithelial cells with fibroblasts
The source made the active and inactive calls. The calls were made as follows: active = hit-call score of the fitted dose curve at least 0.9, where 1 is the maximum; inactive = score below 0.9.
endpoint: outcome

These solved cases illustrate the format of a correct answer.
For O=C(O)C(F)(F)C(F)(F)C(F)(F)C(F)(F)C(F)(F)C(F)(F)C(F)(F)C(F)(F)C(F)(F)C(F)(F)C(F)(F)C(F)(F)C(F)(F)F , what is its reported outcome?
inactive

For O=C(O)C(F)(F)C(F)(F)C(F)(F)C(F)(F)F , what is its reported outcome?
inactive

For N=C(N)C(F)(F)C(F)(F)C(F)(F)C(F)(F)C(F)(F)C(F)(F)C(F)(F)F , what is its reported outcome?
inactive

For FC(F)(F)C(F)(F)C(F)(F)C(F)(F)C(F)(F)C(F)(F)C(F)(F)C(F)(F)F , what is its reported outcome?
inactive

More entries:
For FC(F)(F)C(F)(F)C(F)(F)C(F)(F)C(F)(F)C(F)(F)CCS , what is its reported outcome?
inactive
